Reference source for all entries: ChEMBL document CHEMBL1154089

- System: Mus musculus
- experiment: Toxicity in mouse S180 cells xenografted in ICR mouse assessed as spleen index at 89 umol/kg, ip administered 24 hrs after tumor implantation once daily for 7 consecutive days measured after 24 hrs last post dose
- Format: organism-based, CCRF S-180
- test_parameters: in vivo
Reported Activity values for a set of compounds

>  <chemical_smiles>
O=C(O)c1cc2c3ccccc3n(Cc3ccccc3)c2c(CCN2CCC[C@H]2C(=O)O)n1

>  <Activity [mg/g]>
12.1

$$$$
>  <chemical_smiles>
O=C(O)c1cc2c3ccccc3n(Cc3ccccc3)c2c(CCN[C@@H](Cc2ccccc2)C(=O)O)n1

>  <Activity [mg/g]>
14.4

$$$$
>  <chemical_smiles>
CC(C)[C@@H](NCCc1nc(C(=O)O)cc2c3ccccc3n(Cc3ccccc3)c12)C(=O)O

>  <Activity [mg/g]>
10.2

$$$$
>  <chemical_smiles>
O=C(O)CNCCc1nc(C(=O)O)cc2c3ccccc3n(Cc3ccccc3)c12

>  <Activity [mg/g]>
13.1

$$$$
>  <chemical_smiles>
O=C(O)c1cc2c3ccccc3n(Cc3ccccc3)c2c(CCN[C@@H](CO)C(=O)O)n1

>  <Activity [mg/g]>
10.5

$$$$
>  <chemical_smiles>
CC(C)C[C@H](NCCc1nc(C(=O)O)cc2c3ccccc3n(Cc3ccccc3)c12)C(=O)O

>  <Activity [mg/g]>
10.9

$$$$
>  <chemical_smiles>
C[C@@H](O)[C@H](NCCc1nc(C(=O)O)cc2c3ccccc3n(Cc3ccccc3)c12)C(=O)O

>  <Activity [mg/g]>
11.4

$$$$
>  <chemical_smiles>
N=C(N)NCCC[C@H](NCCc1nc(C(=O)O)cc2c3ccccc3n(Cc3ccccc3)c12)C(=O)O

>  <Activity [mg/g]>
12.7

$$$$

---

- Test system: Mus musculus
- experiment: Toxicity in ICR mouse assessed as tetanus at > 500 mg/kg, ip after 7 days
- Format: organism-based
- Set-up: dose 500 mg/kg, route intraperitoneal
- test_parameters: in vivo, 168 h

>  <chemical_smiles>
O=C(O)CNCCc1nc(C(=O)O)cc2c3ccccc3n(Cc3ccccc3)c12

>  <Activity>
Non-toxic

$$$$
>  <chemical_smiles>
C[C@@H](O)[C@H](NCCc1nc(C(=O)O)cc2c3ccccc3n(Cc3ccccc3)c12)C(=O)O

>  <Activity>
Non-toxic

$$$$
>  <chemical_smiles>
O=C(O)C[C@H](NCCc1nc(C(=O)O)cc2c3ccccc3n(Cc3ccccc3)c12)C(=O)O

>  <Activity>
Non-toxic

$$$$
>  <chemical_smiles>
C[C@H](NCCc1nc(C(=O)O)cc2c3ccccc3n(Cc3ccccc3)c12)C(=O)O

>  <Activity>
Non-toxic

$$$$
>  <chemical_smiles>
N=C(N)NCCC[C@H](NCCc1nc(C(=O)O)cc2c3ccccc3n(Cc3ccccc3)c12)C(=O)O

>  <Activity>
Non-toxic

$$$$

---

Reported Activity values for a set of compounds
- Test system: Mus musculus
- experiment: Toxicity in mouse S180 cells xenografted in ICR mouse assessed as spleen index at 89 umol/kg, ip administered 24 hrs after tumor implantation once daily for 7 consecutive days measured after 24 hrs last post dose
- Assay type: organism-based, CCRF S-180
- test_parameters: in vivo

>  <compound>
O=C(O)c1cc2c3ccccc3n(Cc3ccccc3)c2c(CCN2C(=O)CCC2C(=O)O)n1 (stereo not drawn)

>  <Activity>
12.2 mg/g

$$$$
>  <compound>
C[C@H](NCCc1nc(C(=O)O)cc2c3ccccc3n(Cc3ccccc3)c12)C(=O)O

>  <Activity>
13.3 mg/g

$$$$
>  <compound>
CSCC[C@H](NCCc1nc(C(=O)O)cc2c3ccccc3n(Cc3ccccc3)c12)C(=O)O

>  <Activity>
11.8 mg/g

$$$$
>  <compound>
CC[C@H](C)[C@H](NCCc1nc(C(=O)O)cc2c3ccccc3n(Cc3ccccc3)c12)C(=O)O

>  <Activity>
13.6 mg/g

$$$$
>  <compound>
O=C(O)c1cc2c3ccccc3n(Cc3ccccc3)c2c(CCN[C@@H](Cc2c[nH]c3ccccc23)C(=O)O)n1

>  <Activity>
11.7 mg/g

$$$$
>  <compound>
O=C(O)c1cc2c3ccccc3n(Cc3ccccc3)c2c(CCN[C@@H](Cc2ccc(O)cc2)C(=O)O)n1

>  <Activity>
13.6 mg/g

$$$$
>  <compound>
O=C(O)c1cc2c3ccccc3n(Cc3ccccc3)c2c(CCN[C@@H](Cc2c[nH]cn2)C(=O)O)n1

>  <Activity>
11.9 mg/g

$$$$
>  <compound>
O=C(O)C[C@H](NCCc1nc(C(=O)O)cc2c3ccccc3n(Cc3ccccc3)c12)C(=O)O

>  <Activity>
13 mg/g

$$$$
